Assay Target: MST1 (Homo sapiens (Human), UniProt Q13043)
Sequence (Q13043 whole entry): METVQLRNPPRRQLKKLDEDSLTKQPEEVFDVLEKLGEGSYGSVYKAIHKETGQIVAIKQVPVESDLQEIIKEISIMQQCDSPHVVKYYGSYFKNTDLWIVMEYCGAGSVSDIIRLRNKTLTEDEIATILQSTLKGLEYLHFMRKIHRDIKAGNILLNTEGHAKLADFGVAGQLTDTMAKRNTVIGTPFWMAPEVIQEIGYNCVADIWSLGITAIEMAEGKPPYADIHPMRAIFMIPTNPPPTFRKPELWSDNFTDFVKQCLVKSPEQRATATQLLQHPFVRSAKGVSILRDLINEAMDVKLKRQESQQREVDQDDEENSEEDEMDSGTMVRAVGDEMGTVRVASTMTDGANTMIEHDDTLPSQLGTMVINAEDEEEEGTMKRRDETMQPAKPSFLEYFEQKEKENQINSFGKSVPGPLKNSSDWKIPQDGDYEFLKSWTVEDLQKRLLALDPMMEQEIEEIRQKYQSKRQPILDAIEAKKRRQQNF
Protocol Details: In vitro enzyme activity test (ADP-GLO)
Assay type: biochemical
Test Settings: read-out: MST1 (IC50/μM), ATP 50 μM, 37° C. 1 hour
Measure Name: IC50 (µM)

compound="CN1C(=O)C(c2c(F)cccc2F)N(C)c2nc(Nc3ccc(S(N)(=O)=O)cc3)ncc21 (stereo not shown) [Compound 1]" assay_target="MST1 (Homo sapiens (Human), UniProt Q13043)" unit_symbol=µM obs_value=0.023

(1) CCNS(=O)(=O)c1ccc(Nc2ncc3c(n2)N(C)C(c2c(F)cccc2F)C(=O)N3C)cc1 (stereo not shown) [Compound 38]
(2) CN1C(=O)[C@H](c2ccccc2)N(C)c2nc(Nc3ccc(S(N)(=O)=O)cc3)ncc21 [Compound 4]
(3) Cc1ccccc1C1C(=O)N(C)c2cnc(Nc3ccc(S(N)(=O)=O)cc3)nc2N1C (stereo not shown) [Compound 25]
Task field, ranking: reported IC50, descending order. I'd appreciate it if you listed the labels in the requested order.
2, 1, 3

---

Assay Target: UniProtKB Q13043
Protocol Details: In vitro enzyme activity test (ADP-GLO)
Assay type: biochemical
Test Settings: ATP 50 μM, 37° C. 1 hour, read-out: MST1 (IC50/μM)
Measure Name: IC50 (µM)
Return type: number; implicit unit µM.

A selection of reference data follows.
molecule=CN1C(=O)C2(CCC2)N(C)c2nc(Nc3ccc(S(N)(=O)=O)cc3)ncc21 obs_value=0.141
molecule="CC(C)CC1C(=O)N(C)c2cnc(Nc3ccc(S(N)(=O)=O)cc3)nc2N1C (centres unmarked)" obs_value=0.0767
molecule="CN1C(=O)C(c2ccccc2F)N(C)c2nc(Nc3ccc(S(N)(=O)=O)cc3)ncc21 (centres unmarked)" obs_value=0.0753
molecule="CN1C(=O)C(c2c(F)cccc2F)N(C)c2nc(Nc3ccc(S(=O)(=O)NCC4CC4)cc3)ncc21 (centres unmarked)" obs_value=0.0796
molecule=CN1C(=O)c2sccc2N(C)c2nc(Nc3ccc(S(N)(=O)=O)cc3)ncc21 obs_value=0.121

Check the records and state IC50 for CN1C(=O)C(C2CC2)N(C)c2nc(Nc3ccc(S(N)(=O)=O)cc3)ncc21 (centres unmarked)
0.137

Check the records and state IC50 for CN1C(=O)C(c2cccc(F)c2)N(C)c2nc(Nc3ccc(S(N)(=O)=O)cc3)ncc21 (centres unmarked)
0.134

Check the records and state IC50 for "CN1C(=O)C2(CCCC2)N(C)c2nc(Nc3ccc(S(N)(=O)=O)cc3)ncc21"
0.129

---

Assay Target: MST1 (Homo sapiens (Human), UniProt Q13043)
Protocol Details: In vitro enzyme activity test (ADP-GLO)
Type: biochemical
Test Settings: read-out: MST1 (IC50/μM), ATP 50 μM, 37° C. 1 hour
Measure Name: IC50 (µM)

A selection of reference data follows.
compound="CN1C(=O)C(c2c(F)cccc2F)N(C)c2nc(Nc3ccc(S(=O)(=O)NC4CC4)cc3)ncc21 (stereo not shown)" unit_symbol=µM obs_value=0.113
compound="CN1C(=O)C(c2ccccc2)N(C)c2nc(Nc3ccc(S(=O)(=O)NC4CC4)cc3)ncc21 (stereo not shown)" unit_symbol=µM obs_value=0.143

(a) CN1C(=O)[C@@H](c2ccccc2)N(C)c2nc(Nc3ccc(S(N)(=O)=O)cc3)ncc21
(b) CN1C(=O)C(c2c(F)cccc2F)N(C)c2nc(Nc3ccc(S(=O)(=O)N(C)C4CC4)cc3)ncc21 (stereo not shown)
// pick larger IC50 from pair: a vs b Label of pick, please.
a
(a: 0.0987 µM, b: 0.0316 µM)
